These data points were gathered from ChEMBL document CHEMBL3885861.

# Species: Rattus norvegicus
# Protocol text: Open TG-GATES - Regimen: Daily Repeat
# Format: toxicity, organism-based, Sprague-Dawley
# Design: regimen Daily Repeat, gender Male, age 6 weeks
# Details: in vivo, po, 300 mg/kg, […], tissue Plasma, route gavage, dose level Middle, time 7 day
In this section, each of the compounds is paired with its reported DBIL.
# output: bare number, implied unit mg/dL

Example compounds with recorded DBIL:
1) CCN1CCCC1CNC(=O)c1cc(S(N)(=O)=O)ccc1OC (centres undefined) [SULPIRIDE]    0.01
2) O=C(N[C@H](CO)[C@H](O)c1ccc([N+](=O)[O-])cc1)C(Cl)Cl    0.02
3) O=C(O)c1cccnc1    0

# DBIL of "CC(C)(S)[C@@H](N)C(=O)O" = 0.012
